# procedure_text: Permeability in dog MDCK cells by PAMPA
# Assay type: ADME, cell-based, Canis lupus familiaris
# condition_context: read-out: permeability
measurement_name: Papp

Answered examples (3):
structure_string: CCNC(=O)c1cc2c(-c3cc(C4(O)COC4)ccc3Oc3c(C)cc(F)cc3C)cn(C)c(=O)c2[nH]1
measurement_name: Papp
result: 1.66 ×10⁻⁶ cm/s

structure_string: CCNC(=O)c1cc2c(-c3cc(C(C)(C)O)ccc3Oc3c(C)cccc3C)cn(C)c(=O)c2[nH]1
measurement_name: Papp
result: 6.3 ×10⁻⁶ cm/s

structure_string: Cc1cc(F)cc(C)c1Oc1ccc(C(C)(C)O)cc1-c1cn(C)c(=O)c2[nH]c(C(=O)NC3CC3)cc12
measurement_name: Papp
result: 1.13 ×10⁻⁶ cm/s

Now let's try a different one.
Query: // lookup Papp for CCN(C)C(=O)c1cc2c(-c3cc(S(C)(=O)=O)ccc3Oc3ccc(F)cc3F)cn(C)c(=O)c2[nH]1
Reply: 16 ×10⁻⁶ cm/s

====

# procedure_text: Unbound hepatic clearance in human liver microsomes
# Format: ADME, Microsome
measurement_name: log10(CL free) (log10 of the value in mL/min/kg)
Units before log transform: mL/min/kg; reported quantity: CL free; transform: log10.

Answered examples (4):
structure_string: CCNC(=O)c1cc2c(-c3cc(C(C)(C)O)ccc3Oc3c(C)cccc3C)cn(C)c(=O)c2[nH]1
log10(CL free): 2.79
//
structure_string: CCNC(=O)c1cc2c(-c3cc(S(=O)(=O)CC)ccc3Oc3c(C)cccc3C#N)cn(C)c(=O)c2[nH]1
log10(CL free): 2.83
//
structure_string: CCNC(=O)c1cc2c(-c3cc(S(=O)(=O)CC)ccc3Oc3ccccc3Cl)cn(C)c(=O)c2[nH]1
log10(CL free): 2.30
//
structure_string: CCNC(=O)c1cc2c(-c3cc(S(=O)(=O)CC)ccc3Oc3c(C)cccc3Br)cn(C)c(=O)c2[nH]1
log10(CL free): 2.43

Now let's try a different one.
Query: // lookup log10(CL free) for CCNC(=O)c1cc2c(-c3cc(S(=O)(=O)CC)ccc3Oc3ccccc3C(C)(C)C)cn(C)c(=O)c2[nH]1
Reply: 3.21

====

# target_desc: Bromodomain-containing protein 4 (Homo sapiens, UniProt O60885)
# procedure_text: biochemical
# Format: cell-based
# Description: Inhibition of human N-terminal His6 tagged BRD4 BD1 (57 to 168) residues expressed in Escherichia coli BL21(DE3) cells after 1 hr by TR-FRET assay
measurement_name: Ki
Please state the number and follow it with the unit.

structure_string: CCNC(=O)c1cc2c(-c3cc(S(=O)(=O)CC)ccc3Oc3c(C)cccc3Cl)cn(C)c(=O)c2[nH]1
target_desc: Bromodomain-containing protein 4 (Homo sapiens, UniProt O60885)
Ki: 30 nM

Query: Tell me reported Ki for CCNC(=O)c1cc2c(-c3cc(S(=O)(=O)CC)ccc3Oc3ccccc3C)cn(C)c(=O)c2[nH]1 , tested with Bromodomain-containing protein 4 (Homo sapiens, UniProt O60885).
Reply: 8.4 nM

Query: Entry to check: CCNC(=O)c1cc2c(-c3cc(C(C)(C)O)ccc3Oc3c(C)cccc3C)cn(C)c(=O)c2[nH]1
Reply: 160 nM

====

Examples of molecules with documented CL free follow.
# procedure_text: Unbound hepatic clearance in human liver microsomes
# Type: ADME, Microsome
Write the number in mL/min/kg without appending the unit.

Answered examples (5):
structure_string: CCNC(=O)c1cc2c(-c3cc(S(=O)(=O)CC)ccc3Oc3c(C)cc(F)cc3C)cn(C)c(=O)c2[nH]1
CL free / mL/min/kg: 167

structure_string: CCNC(=O)c1cc2c(-c3cc(S(=O)(=O)CC)ccc3Oc3c(C)cccc3C(F)F)cn(C)c(=O)c2[nH]1
CL free / mL/min/kg: 75

structure_string: CCNC(=O)c1cc2c(-c3cc(S(=O)(=O)CC)ccc3-c3c(C)cccc3C)cn(C)c(=O)c2[nH]1
CL free / mL/min/kg: 550

structure_string: CCNC(=O)c1cc2c(-c3cc(S(=O)(=O)CC)ccc3Oc3c(C)cccc3C(F)(F)F)cn(C)c(=O)c2[nH]1
CL free / mL/min/kg: 75

structure_string: CCNC(=O)c1cc2c(-c3cc(S(=O)(=O)CC)ccc3Oc3ccccc3C)cn(C)c(=O)c2[nH]1
CL free / mL/min/kg: 142

Query: // lookup CL free for CCNC(=O)c1cc2c(-c3cc(S(C)(=O)=O)ccc3Nc3c(C)cccc3C)cn(C)c(=O)c2[nH]1
Reply: 117
